Parameter: protein stability index. Scope: all listed entries.
B1: FAM189A2 (parent)
chain: NLAGFILGCQGAQFVSSVPRCDLV

Variants of: B1
testSummary: protein stability index of a GFP-peptide fusion (GPS, HEK-293T) (PSI 1-6); higher = more stable;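 further: lentivirally expressed fusions sorted by FACS into six bins by GFP to DsRed ratio, PSI derived from sequencing read proportions per bin multiplied by bin number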
reportedConditions: c terminus: a fixed tail appended
API doc: respond with a numeric literal and nothing else, no unit.

{"sequenceVariant": "A12P", "protein stability index": 2.99}

Q. For `Q13N` , what is its reported protein stability index?
A. 2.93

Q. // query: `R20G`
A. 3.08

Q. // query: `Q13F`
A. 3
